Ratio EC50 listing for selected molecules.
- Tested on: Oculimacula yallundae
- assay-comment: Resistance index, ratio of EC50 for sterol 14alpha-demethylation inhibitor-resistant Oculimacula yallundae MDR to EC50 for wild type Oculimacula yallundae TriS by germ tube elongation assay
- Assay type: functional

>  <molecule>
CC(C1CC1)C(O)(Cn1cncn1)c1ccc(Cl)cc1 (centres undefined)

>  <test-system>
Oculimacula yallundae

>  <qualifier>
=

>  <Ratio EC50>
160

$$$$
>  <molecule>
CC(C)(C)C(O)(CCc1ccc(Cl)cc1)Cn1cncn1 (centres undefined)

>  <test-system>
Oculimacula yallundae

>  <qualifier>
=

>  <Ratio EC50>
267

$$$$
>  <molecule>
CCCN(CCOc1c(Cl)cc(Cl)cc1Cl)C(=O)n1ccnc1

>  <test-system>
Oculimacula yallundae

>  <qualifier>
=

>  <Ratio EC50>
100

$$$$
>  <molecule>
O=C(Nc1ccccc1-c1ccc(Cl)cc1)c1cccnc1Cl

>  <test-system>
Oculimacula yallundae

>  <qualifier>
=

>  <Ratio EC50>
5

$$$$
>  <molecule>
Clc1ccc(C2(Cn3cncn3)CC(Br)CO2)c(Cl)c1 (centres undefined)

>  <test-system>
Oculimacula yallundae

>  <qualifier>
=

>  <Ratio EC50>
83

$$$$
>  <molecule>
Cc1cccc(N(C)C(=S)Oc2ccc3ccccc3c2)c1 [TOLNAFTATE]

>  <test-system>
Oculimacula yallundae

>  <qualifier>
>

>  <Ratio EC50>
30

$$$$
>  <molecule>
Cc1cc(C2CC2)nc(Nc2ccccc2)n1

>  <test-system>
Oculimacula yallundae

>  <qualifier>
=

>  <Ratio EC50>
13

$$$$
>  <molecule>
CC1=C(C(=O)Nc2ccccc2)SCCO1

>  <test-system>
Oculimacula yallundae

>  <qualifier>
=

>  <Ratio EC50>
1.4

$$$$
>  <molecule>
CC(C)CC(C)c1sccc1NC(=O)c1cn(C)nc1C(F)(F)F (centres undefined)

>  <test-system>
Oculimacula yallundae

>  <qualifier>
=

>  <Ratio EC50>
12

$$$$
>  <molecule>
CCCOC/C(=N\c1ccc(Cl)cc1C(F)(F)F)n1ccnc1

>  <test-system>
Oculimacula yallundae

>  <qualifier>
=

>  <Ratio EC50>
243

$$$$
>  <molecule>
CC1(C(=O)Nc2ccc(O)c(Cl)c2Cl)CCCCC1

>  <test-system>
Oculimacula yallundae

>  <qualifier>
=

>  <Ratio EC50>
33

$$$$
>  <molecule>
OC(Cc1ccccc1Cl)(Cn1nc[nH]c1=S)C1(Cl)CC1 (centres undefined)

>  <test-system>
Oculimacula yallundae

>  <qualifier>
=

>  <Ratio EC50>
38

$$$$
>  <molecule>
Fc1ccc([C@]2(Cn3cncn3)O[C@H]2c2ccccc2Cl)cc1 (relative stereo)

>  <test-system>
Oculimacula yallundae

>  <qualifier>
=

>  <Ratio EC50>
150

$$$$
>  <molecule>
Cc1cc(C)nc(Nc2ccccc2)n1

>  <test-system>
Oculimacula yallundae

>  <qualifier>
=

>  <Ratio EC50>
12

$$$$

====

Ratio EC50 listing for selected compounds.
- System: Oculimacula yallundae
- assay-comment: Resistance index, ratio of EC50 for sterol 14alpha-demethylation inhibitor-resistant Oculimacula yallundae TriR2 to EC50 for wild type Oculimacula yallundae TriS by germ tube elongation assay
- Assay type: functional

>  <compound>
CC(C1CC1)C(O)(Cn1cncn1)c1ccc(Cl)cc1 (stereo not given)

>  <Ratio EC50>
100

$$$$
>  <compound>
Fc1ccc([C@]2(Cn3cncn3)O[C@H]2c2ccccc2Cl)cc1 (relative stereo)

>  <Ratio EC50>
60

$$$$
>  <compound>
CCCOC/C(=N\c1ccc(Cl)cc1C(F)(F)F)n1ccnc1

>  <Ratio EC50>
71

$$$$
>  <compound>
O=C(Nc1ccccc1-c1ccc(Cl)cc1)c1cccnc1Cl

>  <Ratio EC50>
1.3

$$$$
>  <compound>
CCCN(CCOc1c(Cl)cc(Cl)cc1Cl)C(=O)n1ccnc1

>  <Ratio EC50>
240

$$$$

====

- Test system: Oculimacula yallundae
- assay-comment: Fungicidal activity against Oculimacula yallundae assessed as inhibition of mycelial growth in presence of 10 g glucose incubated at 19 degC in dark for 4 weeks
- Type: functional, organism-based
- measurement-context: 672 h

>  <compound>
COc1cc(C)c(C(=O)c2c(OC)ccc(Br)c2C)c(OC)c1OC

>  <unit-abbrev>
µg/mL

>  <EC50>
0.8

$$$$
>  <compound>
Cc1cc(C2CC2)nc(Nc2ccccc2)n1

>  <unit-abbrev>
µg/mL

>  <EC50>
0.5

$$$$
>  <compound>
C[Si](Cn1cncn1)(c1ccc(F)cc1)c1ccc(F)cc1

>  <unit-abbrev>
µg/mL

>  <EC50>
0.06

$$$$
>  <compound>
Fc1ccc([C@]2(Cn3cncn3)O[C@H]2c2ccccc2Cl)cc1 (relative stereo)

>  <unit-abbrev>
µg/mL

>  <EC50>
0.15

$$$$
>  <compound>
CN(C/C=C/C#CC(C)(C)C)Cc1cccc2ccccc12

>  <unit-abbrev>
µg/mL

>  <EC50>
0.3

$$$$

====

Ratio EC50 listing for selected molecules.
- Tested on: Oculimacula yallundae
- assay-comment: Resistance index, ratio of EC50 for sterol 14alpha-demethylation inhibitor-resistant Oculimacula yallundae MDR to EC50 for wild type Oculimacula yallundae TriS by mycelial growth inhibition assay
- Format: functional

>  <molecule>
O=C(Nc1ccccc1-c1ccc(Cl)cc1)c1cccnc1Cl

>  <test-system>
Oculimacula yallundae

>  <Ratio EC50>
7.5

$$$$
>  <molecule>
COc1cc(C)c(C(=O)c2c(OC)ccc(Br)c2C)c(OC)c1OC

>  <test-system>
Oculimacula yallundae

>  <Ratio EC50>
1.1

$$$$
>  <molecule>
CC(C)(C)C(O)(CCc1ccc(Cl)cc1)Cn1cncn1 (centres undefined)

>  <test-system>
Oculimacula yallundae

>  <Ratio EC50>
25

$$$$
>  <molecule>
CC1(C(=O)Nc2ccc(O)c(Cl)c2Cl)CCCCC1

>  <test-system>
Oculimacula yallundae

>  <Ratio EC50>
2.5

$$$$
>  <molecule>
CCCN(CCOc1c(Cl)cc(Cl)cc1Cl)C(=O)n1ccnc1

>  <test-system>
Oculimacula yallundae

>  <Ratio EC50>
3

$$$$
>  <molecule>
Clc1ccc(C2(Cn3cncn3)CC(Br)CO2)c(Cl)c1 (centres undefined)

>  <test-system>
Oculimacula yallundae

>  <Ratio EC50>
10

$$$$
>  <molecule>
CC(C1CC1)C(O)(Cn1cncn1)c1ccc(Cl)cc1 (centres undefined)

>  <test-system>
Oculimacula yallundae

>  <Ratio EC50>
20

$$$$
>  <molecule>
Fc1ccc([C@]2(Cn3cncn3)O[C@H]2c2ccccc2Cl)cc1 (relative stereo)

>  <test-system>
Oculimacula yallundae

>  <Ratio EC50>
6.7

$$$$
>  <molecule>
OC(Cc1ccccc1Cl)(Cn1nc[nH]c1=S)C1(Cl)CC1 (centres undefined)

>  <test-system>
Oculimacula yallundae

>  <Ratio EC50>
4.5

$$$$

====

Ratio EC50 listing for selected compounds.
- Test system: Oculimacula yallundae
- assay-comment: Resistance index, ratio of EC50 for prochloraz-resistant Oculimacula yallundae isolate ProR1 to EC50 for prochloraz-susceptible Oculimacula yallundae isolate ProS by germ tube elongation inhibition assay
- Format: functional

>  <compound>
CC(C1CC1)C(O)(Cn1cncn1)c1ccc(Cl)cc1 (stereo not given) [CYPROCONAZOLE]

>  <Ratio EC50>
0.5

$$$$
>  <compound>
CC(C)(C)C(O)(CCc1ccc(Cl)cc1)Cn1cncn1 (stereo not given) [TEBUCONAZOLE]

>  <Ratio EC50>
3

$$$$
>  <compound>
C[Si](Cn1cncn1)(c1ccc(F)cc1)c1ccc(F)cc1 [FLUSILAZOLE]

>  <Ratio EC50>
2.5

$$$$
>  <compound>
CCCOC/C(=N\c1ccc(Cl)cc1C(F)(F)F)n1ccnc1 [TRIFLUMIZOLE]

>  <Ratio EC50>
0.1

$$$$
>  <compound>
Fc1ccc([C@]2(Cn3cncn3)O[C@H]2c2ccccc2Cl)cc1 (relative stereo) [EPOXICONAZOLE]

>  <Ratio EC50>
2

$$$$

====

Ratio EC50 listing for selected compounds.
- Tested on: Oculimacula yallundae
- assay-comment: Resistance index, ratio of EC50 for prochloraz-resistant Oculimacula yallundae isolate ProR1 to EC50 for prochloraz-susceptible Oculimacula yallundae isolate ProS by germ tube elongation inhibition assay
- Type: functional

>  <compound>
OC(Cc1ccccc1Cl)(Cn1nc[nH]c1=S)C1(Cl)CC1 (stereo not drawn) [PROTHIOCONAZOLE]

>  <test-system>
Oculimacula yallundae

>  <Ratio EC50>
1.2

$$$$
>  <compound>
Clc1ccc(C2(Cn3cncn3)CC(Br)CO2)c(Cl)c1 (stereo not drawn) [BROMUCONAZOLE]

>  <test-system>
Oculimacula yallundae

>  <Ratio EC50>
0.6

$$$$
>  <compound>
CCCN(CCOc1c(Cl)cc(Cl)cc1Cl)C(=O)n1ccnc1 [PROCHLORAZ]

>  <test-system>
Oculimacula yallundae

>  <Ratio EC50>
63

$$$$

====

- System: Oculimacula yallundae
- assay-comment: Resistance index, ratio of EC50 for prochloraz-resistant Oculimacula yallundae isolate ProR2 to EC50 for prochloraz-susceptible Oculimacula yallundae isolate ProS by mycelial growth inhibition assay
- Assay type: functional
Label y when Ratio EC50 is at or above 5; otherwise label n.

>  <compound>
OC(Cc1ccccc1Cl)(Cn1nc[nH]c1=S)C1(Cl)CC1 (stereo not given) [PROTHIOCONAZOLE]

>  <cat>
n

$$$$
>  <compound>
CCCN(CCOc1c(Cl)cc(Cl)cc1Cl)C(=O)n1ccnc1 [PROCHLORAZ]

>  <cat>
y

$$$$
>  <compound>
Clc1ccc(C2(Cn3cncn3)CC(Br)CO2)c(Cl)c1 (stereo not given) [BROMUCONAZOLE]

>  <cat>
n

$$$$
>  <compound>
C[Si](Cn1cncn1)(c1ccc(F)cc1)c1ccc(F)cc1 [FLUSILAZOLE]

>  <cat>
y

$$$$
